Measured values drawn from patent US20050049402A1 for this set.

System: human TNFα R131Q mutant (human, UniProt P01375 77-233)
Sequence (P01375 77-233 R207Q): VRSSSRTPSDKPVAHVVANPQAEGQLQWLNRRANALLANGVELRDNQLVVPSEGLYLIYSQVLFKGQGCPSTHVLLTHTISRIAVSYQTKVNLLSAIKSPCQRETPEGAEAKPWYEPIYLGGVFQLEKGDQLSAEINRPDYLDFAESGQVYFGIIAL
Assay: ELISA on chimeric/mutant TNFα
Property measured: binding result

250 (antibody, human IgG1, V domains shown, XENOMAX derived, recombinant human IgG1 kappa; also called 250Ab; SC250) VH: EVQLVESGGGLIQPGGSLRLSCAASGFTVSSNYMSWVRQAPGKGLEWVSVIYSGDRTYYADSVKGRFTISRDNSKNTLYLQMNSLRAEDTAVYYCARGEGGFDYWGQGTLVTVSS VL: EIVMTQSPATLSVSPGERATLSCRASQSVTSNLAWYQQKPGQAPRLLIHGASIRATGLPARFSGSGSGTEFTLTISSLQSEDFAVYYCQQYNYWWTFGQGTKVEIK = binds
282 (antibody, human IgG1, V domains shown, XENOMAX derived, recombinant human IgG1 kappa; also called 282 Ab; SC282) VH: QVQLVESGGGVVQPGRSLRLSCAASGFTVSSYGMHWVRQAPGKGLEWVAVIWSNGSNKYYADSVKGRFTISRDNSKNTLYLQMNSLRAEDTAVYYCARDNGVYVGYAYYYGMDVWGQGTTVTVSS VL: DIQMTQSPSSLSASVGDRVTITCRASQGIRNDLGWYQQKPGKAPKRLIYAASSLHSGVPSRFSGSGSGTEFTLTISSLQPEDFATYYCLQHNSYPWTFGQGTKVEIK = binds
269 (antibody, human IgG1, V domains shown, XENOMAX derived, recombinant human IgG1 kappa; also called 269Ab; SC269) VH: EVQLVESGGGLIQPGGSLRLSCAASEFTVSRNYMSWVRQAPGKGLEWVSVIYSGDRTYYADSVKGRFTISRDNSKNTLYLQMNSLRAEDTAVYYCARGEGGFDYWGQGTLVTVSS VL: EIVMTQSPATLSVSPGERATLSCRASQSVSSNLAWYQQKPGQAPRLLIHGASIRATGLPARFSGSGSGTEFTLTISSLQSEDFAVYYCQQYNYWWTFGQGTKVEIK = binds
